Biological target: GABA A receptor α5β3γ2 (Homo sapiens, UniProt P18507+P31644)
Construct: expressed in transfected cells; host or cells: HEK293 cells, transiently transfected; membranes prepared
Assay: [3H]flumazenil competition binding, human GABA A α5β3γ2
Settings: competition for [3H]flumazenil (0.5 nM) binding, HEK293 cells expressing human (transiently transfected) α5β3γ2; means of two determinations; read-out: Ki[nM] hα5
measurement_kind: log10 Ki (log10 of the value in nM)
Response schema: value (number) is log10 of Ki in units of nM.

Query: I'd like to know its log10 Ki. The compound in question is COc1cc(NCCSC)c(F)cc1-c1nnc(-c2c(-c3ccccc3)noc2C)o1 [Example 126]
Reply: 0.65

Query: I'd like to know its log10 Ki. The compound in question is Cc1onc(-c2ccccc2)c1-c1nnc(-c2ccc3c(ccn3C)c2)o1 [Example 75]
Reply: 2.11

Query: I'd like to know its log10 Ki. The compound in question is COc1cc(N2CCOCC2)ccc1-c1nnc(-c2c(-c3ccsc3)noc2C)o1 [Example 123]
Reply: 1.16

Query: I'd like to know its log10 Ki. The compound in question is Cc1onc(-c2ccccc2)c1-c1nnc(-c2ccc(C#N)cc2)o1 [Example 57]
Reply: 1.93

Query: I'd like to know its log10 Ki. The compound in question is Cc1onc(-c2ccccc2)c1-c1nnc(-c2ccsc2)o1 [Example 122]
Reply: 2.14

Query: I'd like to know its log10 Ki. The compound in question is COc1cc(N)ccc1-c1nnc(-c2c(-c3ccccc3)noc2C)o1 [Example 13]
Reply: 0.88

Query: I'd like to know its log10 Ki. The compound in question is Cc1onc(-c2ccccc2)c1-c1nnc(-c2ccc(N3C[C@@H](C)O[C@@H](C)C3)cc2)o1 [Example 41]
Reply: 1.51

Query: I'd like to know its log10 Ki. The compound in question is Cc1onc(-c2ccccc2)c1-c1nnc(-c2ccc(F)cc2)o1 [Example 36]
Reply: 2.13

Query: I'd like to know its log10 Ki. The compound in question is Cc1onc(-c2ccccc2)c1-c1nnc(-c2cccnc2Cl)o1 [Example 6]
Reply: 2.16

The origin of these recorded values is patent US7956074B2.
